The measured values listed here are drawn from paper PMC7039645.

Catalogue of binders with associated kon
- measuredTarget: human epidermal growth factor receptor 2 (Homo sapiens, UniProt P04626)
- procedureText: SPR

- binder: "hu2C4-g1.2 IgG1 (antibody, V domains shown) VH: EVQLVESGGGLVQPGGSLRLSCAASGFTFTDYTMDWVRQAPGKGLEWVADVNPNSGGSIYNQRFKGRFTLSVDRSKNTLYLQMNSLRAEDTAVYYCARAITNEVLLDYWGQGTLVTVSS VL: DIQMTQSPSSLSASVGDRVTITCKASQDVSIGVAWYQQKPGKAPKLLIYSASYRYTGVPSRFSGSGSGTDFTLTISSLQPEDFATYYCQQYYIYPYTFGQGTKVEIK"
  kon (M⁻¹ s⁻¹): 49000
- binder: "hu2C4-g3.2 IgG1 (antibody, V domains shown) VH: EVQLVESGGGLVQPGGSLRLSCAASGFTFTDYTMDWVRQAPGKGLEWVADVNPNSGGSIYNQRFKGRFTLSVDRSKNTLYLQMNSLRAEDTAVYYCARLLAYGYLDYWGQGTLVTVSS VL: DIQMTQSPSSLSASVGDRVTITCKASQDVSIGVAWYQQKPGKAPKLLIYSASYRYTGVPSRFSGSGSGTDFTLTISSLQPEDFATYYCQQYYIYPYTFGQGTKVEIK"
  kon (M⁻¹ s⁻¹): 58000
- binder: "hu2C4-g1.1 IgG1 (antibody, V domains shown) VH: EVQLVESGGGLVQPGGSLRLSCAASGFTFTDYTMDWVRQAPGKGLEWVADVNPNSGGSIYNQRFKGRFTLSVDRSKNTLYLQMNSLRAEDTAVYYCARAIAGGVLLDYWGQGTLVTVSS VL: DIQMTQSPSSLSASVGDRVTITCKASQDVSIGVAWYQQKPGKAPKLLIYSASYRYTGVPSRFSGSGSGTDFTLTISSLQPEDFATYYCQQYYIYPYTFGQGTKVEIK"
  kon (M⁻¹ s⁻¹): 48000
